Listing of recorded folding enthalpy by entry.
experiment: folding enthalpy; higher = less favourable; fluorescence melt of hairpins on a sequencing array, two-state fit; settings: sodium 0.088 M
Your answer should be a plain number; it is taken to be in kcal/mol.

In the examples that follow, each entry is paired with its recorded folding enthalpy.
RESIDUE_STRING | folding enthalpy [kcal/mol]
GAGTGTCCGAAAGGACTC (((..(((....)))))) | -8.71
GCAGGGCGAAAGCACGGC ((.(.((....)).).)) | -33.9
GAGACCGAAAGGTTGCTC ((((((....)))..))) | -14.1
GATCTGCGACCAGATC ((((((....)))))) | -35
GTTTGAGGAAACCCAAAC (((((.(....).))))) | -30.3

Prompt: What value of folding enthalpy has been reported for the following sequence? GTCTCGCCGAAAGGCGAC (((..(((....))))))
Completion: -6.03

Prompt: What value of folding enthalpy has been reported for the following sequence? GACTTTGCGAAAGCAGTC (((..(((....))))))
Completion: -14.4

Prompt: What value of folding enthalpy has been reported for the following sequence? GCAACGGGAAACCGCTAC (.(.(((....))).).)
Completion: -9.4

Prompt: What value of folding enthalpy has been reported for the following sequence? GGTATAGGAAACTGTACC ((((.((....)).))))
Completion: -31.3

Prompt: What value of folding enthalpy has been reported for the following sequence? GGTAACGAAAGTTAGACC ((((((....)))..)))
Completion: -13

Prompt: What value of folding enthalpy has been reported for the following sequence? GGTCACGAAAGTGCAACC ((((((....)))..)))
Completion: -15.9

Prompt: What value of folding enthalpy has been reported for the following sequence? GTTGCGGCGAAAGCCAAC (((..(((....))))))
Completion: -14.7

---

experiment: folding enthalpy; higher = less favourable; fluorescence melt of hairpins on a sequencing array, two-state fit; details: sodium 0.088 M
Where folding enthalpy equals or exceeds -20 kcal/mol, the correct label is 1 (yes); where it does not, the label is 0 (no).

RESIDUE_STRING | ASSIGNED_LABEL
GACGCCGAAAGGCCGGTC ((((((....)))..))) | 1 (yes)
GGAGACCGAAAGGTGTCC (((.(((....))).))) | 0 (no)
GATCAGCCTTCTGATC ((((((....)))))) | 0 (no)
GTGAACGCGAAAGCGCAC (((..(((....)))))) | 1 (yes)
GTGACTCCGAAAGGACAC (((..(((....)))))) | 1 (yes)

Prompt: Is reported folding enthalpy greater than or equal to -20 kcal/mol here: GATCGAGTCTTCGATC ((((((....))))))
Completion: 0 (no)

Prompt: Is reported folding enthalpy greater than or equal to -20 kcal/mol here: TGCCAGAAATGGCA (((((....)))))
Completion: 1 (yes)

Prompt: Is reported folding enthalpy greater than or equal to -20 kcal/mol here: GCGACCATCGC ((((...))))
Completion: 1 (yes)

---

assay: folding enthalpy; higher = less favourable; fluorescence melt of hairpins on a sequencing array, two-state fit; conditions: sodium 0.088 M
REPORTED_PROPERTY: folding enthalpy

RESIDUE_STRING | folding enthalpy
GCGCGCGAAAGCGTACGC ((((((....)))..))) | -17.5 kcal/mol
GATCTCATATGAGATC ((((((....)))))) | -43.8 kcal/mol
GATCTAACGTTAGATC ((((((....)))))) | -47 kcal/mol

Prompt: What value of folding enthalpy has been reported for the following sequence? GAATTGGGAAACCAGTTC (((.(((....))).)))
Completion: -30.1 kcal/mol

Prompt: What value of folding enthalpy has been reported for the following sequence? GACAGTGGAAACACTATC ((.((((....)))).))
Completion: -15.9 kcal/mol

Prompt: What value of folding enthalpy has been reported for the following sequence? GTTCAACGAAAGTTTAAC (((.(((....))).)))
Completion: -22.9 kcal/mol

Prompt: What value of folding enthalpy has been reported for the following sequence? GATCCGGGACGGATC ((((((...))))))
Completion: -37.1 kcal/mol
